Just for reference, patent US5869476A is where these values come from.

molecular target: angiotensin II receptor (Oryctolagus cuniculus, UniProt P34976); construct: The aorta was cut into 3~4 mm to form ring samples; from tissue; host or cells: isolated aorta rings of New Zealand White rabbits; test: inhibition of angiotensin II induced contraction of isolated rabbit aorta rings; assay type: cell-based, New Zealand White rabbit; conditions: test compound incubated 20 minutes, 37° C., pH 7.4, read-out: IC50 (concentration being required to inhibit angiotensin II induced contraction by 50%)
metric: IC50 (nM)

Below: 2 compounds and their reported IC50.
{"compound": "CCCCc1nc(C)c(CCC(=O)N2C(C)COCC2C)c(=O)n1Cc1ccc(-c2ccccc2-c2nn[nH]n2)cc1 (stereo not shown)", "IC50 [nM]": 13.1}
{"compound": "CCCCc1nc(=O)c(CC(=O)N2CCCC2)c(C)n1Cc1ccc(-c2ccccc2-c2nn[nH]n2)cc1", "IC50 [nM]": 119}

A. CCCCc1nc(=O)c(CCC(=O)OCC)c(C)n1Cc1ccc(-c2ccccc2-c2nnn[nH]2)cc1
B. CCCCc1nc(C)c(CCC(=O)N2CCN(c3ccccn3)CC2)c(=O)n1Cc1ccc(-c2ccccc2-c2nn[nH]n2)cc1
C. CCCCc1nc(C)c(CCC(=O)N2CCCCC2C(=O)OCC)c(=O)n1Cc1ccc(-c2ccccc2-c2nn[nH]n2)cc1 (stereo not shown)
D. CCCCc1nc(C)c(CCC(=O)N2CCCC(C)(C)C2)c(=O)n1Cc1ccc(-c2ccccc2-c2nn[nH]n2)cc1
E. CCCCc1nc(C)c(CC(=O)N2CCC[C@H]2C(N)=O)c(=O)n1Cc1ccc(-c2ccccc2-c2nn[nH]n2)cc1
Returns the items ordered by IC50, from maximum to minimum. // rank by listing labels in the order requested
A, B, C, D, E

====

biological target: angiotensin II receptor (Oryctolagus cuniculus, UniProt P34976); construct: The aorta was cut into 3~4 mm to form ring samples; from tissue; host or cells: isolated aorta rings of New Zealand White rabbits; experiment: inhibition of angiotensin II induced contraction of isolated rabbit aorta rings; format: cell-based, New Zealand White rabbit; settings: test compound incubated 20 minutes, value given in M, read-out: IC50 (concentration being required to inhibit angiotensin II induced contraction by 50%)
metric: IC50

{"molecularString": "CCCCc1nc(C)c(CCC(=O)N2CCC(C)CC2)c(=O)n1Cc1ccc(-c2ccccc2-c2nn[nH]n2)cc1", "IC50": "> 10 µM"}

What value of IC50 has been reported for the following molecule? `CCCCc1nc(C)c(CC(=O)N2CCC(C)CC2)c(=O)n1Cc1ccc(-c2ccccc2-c2nn[nH]n2)cc1`
> 10 µM

====

molecular target: angiotensin II receptor (Oryctolagus cuniculus, UniProt P34976); construct: The aorta was cut into 3~4 mm to form ring samples; from tissue; host or cells: isolated aorta rings of New Zealand White rabbits; assay: inhibition of angiotensin II induced contraction of isolated rabbit aorta rings; assay type: cell-based, New Zealand White rabbit; details: test compound incubated 20 minutes, 37° C., pH 7.4, read-out: IC50 (concentration being required to inhibit angiotensin II induced contraction by 50%)
metric: IC50 (nM)

Below: 5 molecules and their reported IC50.
{"molecule": "CCCCc1nc(C)c(CCC(=O)OCC)c(=O)n1Cc1ccc(-c2ccccc2-c2nnn[nH]2)cc1", "targetEntity": "angiotensin II receptor (Oryctolagus cuniculus, UniProt P34976)", "IC50 (nM)": 3.5}
{"molecule": "CCCCc1nc(C)c(CC(=O)N2[C@H](C)CCC[C@@H]2C)c(=O)n1Cc1ccc(-c2ccccc2-c2nn[nH]n2)cc1", "targetEntity": "angiotensin II receptor (Oryctolagus cuniculus, UniProt P34976)", "IC50 (nM)": 28.4}
{"molecule": "CCCc1nc(C)c(CCC(=O)OCC)c(=O)n1Cc1ccc(-c2ccccc2-c2nn[nH]n2)cc1", "targetEntity": "angiotensin II receptor (Oryctolagus cuniculus, UniProt P34976)", "IC50 (nM)": 4.99}
{"molecule": "CCCCc1nc(C)c(CCC(=O)NCc2ccccc2)c(=O)n1Cc1ccc(-c2ccccc2-c2nnn[nH]2)cc1", "targetEntity": "angiotensin II receptor (Oryctolagus cuniculus, UniProt P34976)", "IC50 (nM)": 92.3}
{"molecule": "CCCCc1nc(C)c(CCC(=O)N2CCCCC2)c(=O)n1Cc1ccc(-c2ccccc2-c2nn[nH]n2)cc1", "targetEntity": "angiotensin II receptor (Oryctolagus cuniculus, UniProt P34976)", "IC50 (nM)": 9.62}

P. CCCCc1nc(C)c(CC(=O)O)c(=O)n1Cc1ccc(-c2ccccc2C(=O)O)cc1
Q. CCCCc1nc(C)c(CC(=O)N2CCCCC2C(=O)OCC)c(=O)n1Cc1ccc(-c2ccccc2-c2nn[nH]n2)cc1 (stereo not shown)
Of P and Q , which carries the smaller reported IC50 figure? Respond using the label that marks the chosen record.
Q

====

Target: angiotensin II receptor (Oryctolagus cuniculus)
Construct: The aorta was cut into 3~4 mm to form ring samples; from tissue; host or cells: isolated aorta rings of New Zealand White rabbits
Sequence (P34976 1-359): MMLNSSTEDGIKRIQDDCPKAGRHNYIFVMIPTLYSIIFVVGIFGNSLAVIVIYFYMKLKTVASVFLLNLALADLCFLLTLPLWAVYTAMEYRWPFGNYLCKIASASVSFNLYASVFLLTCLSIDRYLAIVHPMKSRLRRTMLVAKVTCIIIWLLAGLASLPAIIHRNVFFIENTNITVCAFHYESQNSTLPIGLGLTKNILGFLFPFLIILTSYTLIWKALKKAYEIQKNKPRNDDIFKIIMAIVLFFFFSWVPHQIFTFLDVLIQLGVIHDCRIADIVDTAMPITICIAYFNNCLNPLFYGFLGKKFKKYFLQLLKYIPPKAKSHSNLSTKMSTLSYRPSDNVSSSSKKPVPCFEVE
Experiment: inhibition of angiotensin II induced contraction of isolated rabbit aorta rings
Type: cell-based, New Zealand White rabbit
Conditions: test compound incubated 20 minutes, 37° C., pH 7.4, read-out: IC50 (concentration being required to inhibit angiotensin II induced contraction by 50%)
metric: IC50 (nM)

Below: 8 molecules and their reported IC50.
{"molecule": "CCCCc1nc(C)c(CC(=O)N2C(C)COCC2C)c(=O)n1Cc1ccc(-c2ccccc2-c2nn[nH]n2)cc1 (centres unmarked)", "readoutUnit": "nM", "IC50": 1.03}
{"molecule": "CCCCc1nc(C)c(CCC(=O)N2CCC(C(N)=O)CC2)c(=O)n1Cc1ccc(-c2ccccc2-c2nn[nH]n2)cc1", "readoutUnit": "nM", "IC50": 2.29}
{"molecule": "CCCCc1nc(=O)c(CC(=O)O)c(C)n1Cc1ccc(-c2ccccc2-c2nnn[nH]2)cc1", "readoutUnit": "nM", "IC50": 8.53}
{"molecule": "CCc1nc(C)c(CCC(=O)N(CC)CC)c(=O)n1Cc1ccc(-c2ccccc2-c2nnn[nH]2)cc1", "readoutUnit": "nM", "IC50": 73.6}
{"molecule": "CCc1nc(=O)c(CC(=O)O)c(C)n1Cc1ccc(-c2ccccc2-c2nnn[nH]2)cc1", "readoutUnit": "nM", "IC50": 22.3}
{"molecule": "CCCCc1nc(=O)c(CCC(=O)O)c(C)n1Cc1ccc(-c2ccccc2-c2nnn[nH]2)cc1", "readoutUnit": "nM", "IC50": 42.8}
{"molecule": "CCCCc1nc(CC)c(CCC(=O)OCC)c(=O)n1Cc1ccc(-c2ccccc2-c2nn[nH]n2)cc1", "readoutUnit": "nM", "IC50": 11.2}
{"molecule": "CCCCc1nc(C)c(CC(=O)N2CCSC2)c(=O)n1Cc1ccc(-c2ccccc2-c2nn[nH]n2)cc1", "readoutUnit": "nM", "IC50": 9.13}

P. CCCCc1nc(C)c(CCC(=O)N2CCCC2)c(=O)n1Cc1ccc(-c2ccccc2-c2nn[nH]n2)cc1
Q. CCCCc1nc(C)c(CC(=O)N(C)C)c(=O)n1Cc1ccc(-c2ccccc2-c2nnn[nH]2)cc1
R. CCCc1nc(C)c(CCC(=O)N(CC)CC)c(=O)n1Cc1ccc(-c2ccccc2-c2nnn[nH]2)cc1
S. CCCc1nc(C)c(CC(=O)O)c(=O)n1Cc1ccc(-c2ccccc2-c2nnn[nH]2)cc1
Put these in order: smallest IC50 first, largest last. // rank by listing labels in the order requested
Q, P, S, R

====

biological target: angiotensin II receptor (Oryctolagus cuniculus, UniProt P34976); construct: The aorta was cut into 3~4 mm to form ring samples; from tissue; host or cells: isolated aorta rings of New Zealand White rabbits; assay: inhibition of angiotensin II induced contraction of isolated rabbit aorta rings; type: cell-based, New Zealand White rabbit; conditions: test compound incubated 20 minutes, 37° C., pH 7.4, read-out: IC50 (concentration being required to inhibit angiotensin II induced contraction by 50%)
pIC50: −log10 of the molar value.
metric: pIC50

a. CCCc1nc(=O)c(CC(=O)O)c(C)n1Cc1ccc(-c2ccccc2-c2nnn[nH]2)cc1
b. CCCCc1nc(C)c(CC(=O)N(CC)CC)c(=O)n1Cc1ccc(-c2ccccc2-c2nnn[nH]2)cc1
Of a and b , which carries the smaller reported pIC50 figure? Respond using the label that marks the chosen record.
a

a. CCCCc1nc(C)c(CCC(=O)N2CCC(C(=O)OCC)CC2)c(=O)n1Cc1ccc(-c2ccccc2-c2nn[nH]n2)cc1
b. CCCCc1nc(C)c(CC(=O)N2CCCC(C(=O)OCC)C2)c(=O)n1Cc1ccc(-c2ccccc2-c2nn[nH]n2)cc1 (stereo not drawn)
c. CCCCc1nc(C)c(CC(=O)N2CCC[C@H]2C(=O)OC)c(=O)n1Cc1ccc(-c2ccccc2-c2nn[nH]n2)cc1
d. CCOC(=O)CCc1c(C)nc(CC)n(Cc2ccc(-c3ccccc3-c3nnn[nH]3)cc2)c1=O
Returns the items ordered by pIC50, from maximum to minimum. // rank by listing labels in the order requested
c, b, a, d
(c: 8.69, b: 8.45, a: 8.01, d: 7.51)
